- MEASURED_ON: Rap guanine nucleotide exchange factor 3 (Homo sapiens) (UniProt O95398)
- Sequence (O95398 whole entry, looked up): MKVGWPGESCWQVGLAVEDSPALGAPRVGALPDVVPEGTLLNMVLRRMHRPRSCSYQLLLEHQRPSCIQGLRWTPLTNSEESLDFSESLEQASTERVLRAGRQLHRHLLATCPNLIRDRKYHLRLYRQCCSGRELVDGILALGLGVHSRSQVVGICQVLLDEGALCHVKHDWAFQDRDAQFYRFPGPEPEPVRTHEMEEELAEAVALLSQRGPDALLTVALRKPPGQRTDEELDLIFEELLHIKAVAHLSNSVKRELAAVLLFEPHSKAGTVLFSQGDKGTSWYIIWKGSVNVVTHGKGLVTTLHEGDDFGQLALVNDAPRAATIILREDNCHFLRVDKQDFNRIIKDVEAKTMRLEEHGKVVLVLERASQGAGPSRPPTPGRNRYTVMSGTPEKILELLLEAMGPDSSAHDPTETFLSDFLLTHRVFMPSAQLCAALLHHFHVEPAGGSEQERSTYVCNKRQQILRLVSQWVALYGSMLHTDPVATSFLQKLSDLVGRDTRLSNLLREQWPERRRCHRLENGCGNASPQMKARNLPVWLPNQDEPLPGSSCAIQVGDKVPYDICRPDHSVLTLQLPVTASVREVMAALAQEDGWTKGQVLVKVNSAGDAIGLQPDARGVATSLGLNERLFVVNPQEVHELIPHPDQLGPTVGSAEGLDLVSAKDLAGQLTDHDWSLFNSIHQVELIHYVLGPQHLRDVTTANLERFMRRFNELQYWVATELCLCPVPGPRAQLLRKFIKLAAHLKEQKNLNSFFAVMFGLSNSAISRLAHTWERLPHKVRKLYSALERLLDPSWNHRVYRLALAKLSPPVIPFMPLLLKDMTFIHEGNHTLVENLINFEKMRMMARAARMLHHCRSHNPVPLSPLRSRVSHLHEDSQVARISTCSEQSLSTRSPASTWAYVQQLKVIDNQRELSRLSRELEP
- PROTOCOL_DESCRIPTION: Counterscreen qHTS for antagonist of cAMP-regulated guanine nucleotide exchange factor 3 (EPAC1) (AID 1645888);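 also: fluorescence loss as bound BODIPY-GDP is released from Rap1B; % of control where 0% means no effect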
- DETAILS: Rap1B-BODIPY-GDP nucleotide exchange, fluorescence; series mostly up to 154 µM
Results filed as inconclusive are left out. Active and inactive are the calls of the source. Calls follow the shape of the dose curve; as a rule, active = well fitted inhibition curve with a large enough effect; inconclusive = small, poorly fitted or top-dose-only effect; inactive = no such curve, though single readings can be large or run the other way.
ENDPOINT: activity change, negative = inhibition

- Cc1ccc(C(=O)Nc2ccc(N3CCOCC3)c3nonc23)cc1[N+](=O)[O-]: inactive
- O=C1NC(=O)C(c2ccccc2)(c2ccccc2)N1S(=O)(=O)c1ccccc1: inactive
- O=C(O)CN1C(=O)/C(=C\c2cccc(OCc3ccccc3F)c2)SC1=S: inactive
- Cc1ccc(S(=O)(=O)N2[C@@H](c3ccc(Br)cc3)C(C(=O)O)=CC[C@H]2c2ccc(Cl)cc2)cc1: inactive
- COc1ccc(S(=O)(=O)N2CCOC23CCN(S(=O)(=O)c2cc(F)ccc2F)CC3)cc1: -8.89% [at 30.8 µM] (inactive)
- CC(C)OC(=O)NC(c1ccccc1)C(Cl)(Cl)Cl (stereo not drawn): -2.25% [at 30.8 µM] (inactive)
- Cc1ccc(S(=O)(=O)Nc2ccccc2C=Nc2cccc(C)c2C)cc1: inactive
- CCOC(=O)C1CCCN(c2c(NCCN3CCCCC3C)c(=O)c2=O)C1 (stereo not drawn): inactive
- Cc1cc(O)c(C(=O)/C=C/c2cccc([N+](=O)[O-])c2)c(=O)o1: inactive
- COn1c(-c2ccc(Cl)cc2Cl)nc2ncccc21: inactive
- Cc1cc(-c2ccc(Br)s2)nc(-n2cccc2)n1: inactive
- CCOC(=O)Cn1c(=O)oc2cc(S(=O)(=O)Nc3c(C)cc(C)cc3C)ccc21: -16.5% [at 30.8 µM] (inactive)
- Cc1cc(C)c2c(CN3CCCCC3)cc(=O)oc2c1: inactive
- Cc1cc(=O)n(Cc2cccc(Cl)c2)c2c1c(C)nn2C: inactive
- CCCc1cc(C(=O)Nc2ccccc2C(=O)OC)no1: inactive
- COCCCN1C(=O)C(CC(=O)NCc2cccc3ccccc23)CC(C(=O)N2CCCCCC2)=C1C (stereo not drawn): inactive
- CCS(=O)(=O)N1CCCC(C(=O)NCCCN(C)Cc2ccccc2)C1 (stereo not drawn): inactive
- COc1cccc(OCCOc2ccc(/C=C3\C(=N)N4N=C(S(C)(=O)=O)SC4=NC3=O)cc2OC)c1: inactive
- Cc1cc(C)cc(C(O)c2ncc(-c3ccccc3Cl)[nH]2)c1 (stereo not drawn): -7.63% [at 30.8 µM] (inactive)
- COc1cc(C2c3c(oc4ccccc4c3=O)C(=O)N2c2nc(C)c(C)s2)ccc1O (stereo not drawn): inactive
- C/C(=N\NC(=O)C1CC1)c1cccs1: inactive
- CC(=NNC(=O)c1ccccc1N)c1ccccc1O: -1.34% [at 30.8 µM] (inactive)
- N#CC1(NC(=O)COC(=O)c2nc(Cl)c(Cl)c(N)c2Cl)CCCCC1: inactive
- COc1cc(C=NNc2ccc(S(=O)(=O)Nc3ccccc3C(=O)O)cc2[N+](=O)[O-])ccc1O: -11.1% [at 30.8 µM] (inactive)
- N#C/C(=C\c1cn(Cc2ccc(C#N)cc2)c2ccccc12)C(=O)NCc1cccs1: 7.4% [at 30.8 µM] (inactive)
- O=C(CCN1C(=O)S/C(=C\c2ccccc2)C1=O)Nc1ccc(S(=O)(=O)Nc2nccs2)cc1: -0.356% [at 30.8 µM] (inactive)
- CN(CCC#N)C(=O)COC(=O)c1c2c(nc3ccccc13)/C(=C/c1ccco1)CC2: -6.16% [at 30.8 µM] (inactive)
- COc1ccccc1OCCCSc1nc(-c2ccc(C(C)(C)C)cc2)nc2cc(=O)[nH]n12: inactive
- Cn1c(=O)c2c(nc(N3CCOCC3)n2CCSc2ncccn2)n(C)c1=O: -3.24% [at 30.8 µM] (inactive)
- Cc1cccc(NC(=O)c2c(NC(=O)C(F)(F)F)sc3c2CCCCC3)c1: inactive
- O=C(N[C@@H](Cc1c[nH]c2ccccc12)C(=O)O)OCC1c2ccccc2-c2ccccc21: inactive
- CC1(C(=O)NS(=O)(=O)c2ccc3ccccc3c2)CCN1C(=O)C1(c2ccc(Cl)cc2)CCC1 (stereo not drawn): inactive
- Oc1ccc(NCc2cccs2)cc1: 0.945% [at 30.8 µM] (inactive)
